- tgt: T1, Bio-P19 member A2E-7 (chain 2 (heavy): C-terminal BirA substrate peptide, biotinylated there by BirA; tag letters not given, left out)
- T1 construct: also called biotinylated control peptide A2E-7/HLA-A*02:01 monomer; not shown: BirA substrate peptide (BSP) tag at the C-terminus of the heavy chain
- assay-comment: phage ELISA, streptavidin plate, anti-M13-HRP
outcome-measure: binding result

PSA146/HLA-A*02:01-specific scFv phage clone #15 (scFv, V domains shown) VH: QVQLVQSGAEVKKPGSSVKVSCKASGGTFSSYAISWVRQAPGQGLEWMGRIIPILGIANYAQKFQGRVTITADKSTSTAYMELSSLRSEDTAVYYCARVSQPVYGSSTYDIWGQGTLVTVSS VL: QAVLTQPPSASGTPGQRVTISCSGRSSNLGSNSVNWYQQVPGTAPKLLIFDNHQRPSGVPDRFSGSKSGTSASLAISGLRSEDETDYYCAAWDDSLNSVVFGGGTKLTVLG | no binding
PSA146/HLA-A*02:01-specific scFv phage clone #18 (scFv, V domains shown) VH: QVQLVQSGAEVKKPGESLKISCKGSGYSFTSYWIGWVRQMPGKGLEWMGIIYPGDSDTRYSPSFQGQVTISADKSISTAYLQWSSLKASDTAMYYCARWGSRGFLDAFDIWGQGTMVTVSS VL: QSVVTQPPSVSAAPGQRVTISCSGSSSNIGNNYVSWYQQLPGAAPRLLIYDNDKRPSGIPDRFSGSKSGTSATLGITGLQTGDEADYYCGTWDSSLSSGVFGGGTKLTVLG | no binding
